Every entry's value here was drawn from patent US20210275657A1.

tgt: T1, HLA-B07:02 (human)
T1 construct: Stability assay: E. coli-expressed biotinylated heavy chain with 125I-labelled b2m; MS: BAP-tagged HLA in HEK293T cells; Treated as one molecule
method: pMHC-I dissociation, 125I-b2m, 37C; average of 2
reported_property: half-life (h)
The response must be a number in h with no trailing unit.

Example entries begin here.
KPKRDGYMFL : 3.3
GPPARVPAV : 1.6

Output half-life of KPKRDGYMF
8.6

Output half-life of MFATLQRSSL
0

Output half-life of FATLQRSSL
0.7
